# Test system: MS2 coat protein
# method description: apparent Kd, MS2 coat protein; higher = weaker binding; RNA-MaP array
# test context: designed as: OFF switch for flavin mononucleotide; no ligand
The following sequences are listed with their measured apparent Kd values.

# sequence entry, apparent Kd
records = [
    ("CUACCAAAUUGAGGAUAUAGCCUGGGAGAACCAAGUUCCAUGAAAUACAUGAGGAUCACCCAUGUCUAGAAGGCAACAAUGGCC", "92.4 nM"),
    ("AAGUGCAGCCGAGGAUAUAUCCACACGCCAGUACCCUCUCACAUGAGGAUCACCCAUGUUACCGGAUAGAAGGCGGUUUAUUAU", "31.7 nM"),
    ("UAUGUCGGGAAGAAGGUAAUAACGGGAUUGACAUGAGGAUCACCCAUGUGUACGAGUUAGUUGCUUAAGGAUAUUCUCGCCCAU", "6.37 nM"),
    ("AAACUAUGAGGAUAUACAUGAGGAUCACCCAUGUCGGUACUGGUAUGGCCCUGAUCCCGUAGAAGGCAUCGGUC", "369 nM"),
    ("CUGUGAGUAGGAUAUGAUCACAAGUACAUGAGGAUCACCCAUGUGUGGCUCUGUACCGCCUCAGAAGGACUCGUCU", "28 nM"),
    ("AUCGACAAAGGAUAUGAUGCGAAUGACAUGAGGAUCACCCAUGUGGAGCCAAGUGUCCCGUCAGAAGGUUGUACGU", "152 nM"),
    ("GCUGUAGAAGGAUAUCACAGGAUGGACAUGAGGAUCACCCAUGUUCUUUACUCCGCACCUUGAGAAGGUCUAAGUC", "6.27 nM"),
    ("UCGUGCAGUGAGGAUAUCCCGAAGGCUUCCAUUGGAGAAGGCACUACAUGAGGAUCACCCAUGUGGCUUGAUAA", "44 nM"),
    ("ACCCAUUUGUUAGGAUAUGACUCGAGACAGGUACAUGAGGAUCACCCAUGUUGUACAGGACCGUCUCAGAAGGAACGAACGUAU", "9.64 nM"),
    ("GUUCUGCAUAAGGAUAUAUGAGCACACGCAGACAUAGAAGGUAUGACAUGAGGAUCACCCAUGUCCUCUCGAGA", "8.5 nM"),
    ("ACAUGAGGAUCACCCAUGUUUGACUGGGCUUGCUCUCGCCGUAGAAGGUUUCAUUAAGUAGAGGAAAAGGAUAUACACUGGGCC", "12.2 nM"),
]

###

# Test system: MS2 coat protein
# method description: apparent Kd, MS2 coat protein; higher = weaker binding; RNA-MaP array; FMN 200 µM where present
# test context: ligand present: flavin mononucleotide; designed as: OFF switch for flavin mononucleotide
If the reported apparent Kd equals or exceeds 40 nM, assign True. If not, assign False.

# sequence entry, group
data = [
    ("GUGUAGAUAGGAUAUGCUUUGAGCCUACGAAAGUACGCUCGACAUGAGGAUCACCCAUGUAGAAGGGUUUACAC", "True"),
    ("GCACUGGAUGUAGGAUAUCAGGACGAUAAGUCCUGAGAAGGACAUGAGGAUCACCCAUGUCUCAAAUACCAGUGCAAUAAUAUA", "False"),
    ("UGUCGGAGCAGAGGAUAUUACAUGAGGAUCACCCAUGUAUGAACCAAUAGCUGGACACAGCAAUGUAAGAAGGCUGCUCCGACA", "True"),
    ("UAUUAACAUGUAGGAUAUCUGCACGAUUAGUGCAGAGAAGGACAUGAGGAUCACCCAUGUAGAUCAUAAUAAUUUAAUUUAAUU", "True"),
    ("UAUAUGUCAGGAUAUCGAUUGGAAUGGAAUUUAGUUCUGGUUGAGAAGGGACAUGAGGAUCACCCAUGUUUUUC", "True"),
    ("UGCAGGCGAGGAUAUGCUCGGGUUGCUUGUCGAGAGGAUGCACAUGAGGAUCACCCAUGUAGAAGGUGUCUAUG", "True"),
    ("AUAUCAAGCAAGGAUAUGCAAAUGGUUAUUUAUGCAGAAGGUGCAACAUGAGGAUCACCCAUGUUUCUGGGUUU", "True"),
    ("GGUCGUUGAGGAUAUACGAACAUGUCGCCAGAUGUCAUGGUACAUGAGGAUCACCCAUGUAGAAGGUGGUGGUC", "False"),
    ("UGGACCGAGCUAUCGGUUGACUGGGAGGAUAUGACAUGAGGAUCACCCAUGUGGGAUCUAAAUUGUCAGAAGGCUCGUUCUGGG", "True"),
    ("GAGGACUGAAUAAAUAACUCAAAUACAUGAGGAUCACCCAUGUAGGAUAUCGUCAGGAAUACUGACGAGAAGGACAUACAGUCC", "False"),
    ("UGGCGUAUCGAAGGAUAUCUGGGCUUACUCGGAGGAUCGACAUGAGGAUCACCCAUGUAUGACCAAGAGAAGGUCGAGGACGUA", "True"),
    ("UUGUUAUGUGUAGGAUAUGCAUAUUAUUAUUAUGCAGAAGGACAUGAGGAUCACCCAUGUAUAUUAUUAUUAUAUAUUAUAUAU", "False"),
    ("GUUGUUCGAGGAUAUACAUGAGGAUCACCCAUGUGUGUUGUGGGCGACGUUCGUUUAUGUAGAAGGCGAGCGGC", "True"),
    ("GCACUGGAUGUAGGAUAUCAGGACGAUAAGUCCUGAGAAGGACAUGAGGAUCACCCAUGUAAAAUCUCACCAGUGCAUAAUAUA", "False"),
]

###

# System: MS2 coat protein
# method description: apparent Kd, MS2 coat protein; higher = weaker binding; RNA-MaP array; FMN 200 µM where present
# test context: ligand present: flavin mononucleotide; designed as: OFF switch for flavin mononucleotide
If the reported apparent Kd equals or exceeds 90 nM, assign condition met. If not, assign condition not met.

# sequence entry, group
data = [
    ("AGCUGGUGACAGCAUCCAUCAUAACAUGAGGAUCACCCAUGUAGAAGGCUGUACGGUUACCGUACAGAGGAUAUACAAUGAUGG", "condition not met"),
    ("GAUCGAGAACUCACGGCGUUGCACAUGAGGAUCACCCAUGUGCAGGAUAUGGCCGCCGUCGGAGGCCAGAAGGGCACAGUAGGU", "condition not met"),
    ("CUCCAGCAAGGAUAUACAUGAGGAUCACCCAUGUAAAGACAAGAGUUGGGAGACGCAUGUAGAAGGUGCACAUC", "condition not met"),
    ("UUUAAGCGAGGAUAUACAUGAGGAUCACCCAUGUCAAGUAUUCUUGACGCCGUGCUCUGUAGAAGGCGCAAUUA", "condition met"),
]

###

# Test system: MS2 coat protein
# method description: apparent Kd, MS2 coat protein; higher = weaker binding; RNA-MaP array; FMN 200 µM where present
# test context: designed as: OFF switch for flavin mononucleotide; no ligand
The following sequences are listed with their measured apparent Kd values.

# sequence entry, apparent Kd (nM)
measured = [
    ("UACGGACAUGAGGAUCACCCAUGUGAGGAUAUCGGUACCGAUAGCAUAAUCUACUCGGCGAGAAGGCACAGCGU", 30.7),
    ("AUAUCAAGCAAGGAUAUGCAAAUGGUUAUUUAUGCAGAAGGUGCAACAUGAGGAUCACCCAUGUUUCUGGGUUU", 64.4),
    ("UAAGAUUAUUGAGGAUAUGGUAAUUUUUAUUAACCAGAAGGCAAACUCAACAUGAGGAUCACCCAUGUAUAAAGGGUAUUAGUU", 68),
    ("UGACCCAUGACAUGAGAUGACAUGAGGAUCACCCAUGUUUACAAGGAUAUGUUGAUGAAACAUCAACAGAAGGUGUAAUGGGAU", 53.7),
    ("AACGCGUCAGGAUAUGCCAUAAAUUACCUAAUACAACCAUAGCAGAAGGGACAUGAGGAUCACCCAUGUAAAUA", 32.1),
    ("UAUAUGUCAGGAUAUCGAUUGGAAUGGAAUUUAGUUCUGGUUGAGAAGGGACAUGAGGAUCACCCAUGUUUUUC", 35.5),
    ("UGUCGGAGCAGAGGAUAUUACAUGAGGAUCACCCAUGUAUGAACCAAUAGCUGGACACAGCAAUGUAAGAAGGCUGCUCCGACA", 11.4),
    ("CGCGCGCGUGUUAGGAUAUAUGUGUGUGGUUAUUUAUAGAAGGGACAUGAGGAUCACCCAUGUGUGUGGGCGCG", 520),
    ("CGGCAUCAUGUAGGAUAUGCGUGGCGAAGCUAUGCAGAAGGACAUGAGGAUCACCCAUGUCUUAGCUAGCGUACUAGCUUGCCG", 6.24),
    ("GUUGUUCGAGGAUAUACAUGAGGAUCACCCAUGUGUGUUGUGGGCGACGUUCGUUUAUGUAGAAGGCGAGCGGC", 63.3),
    ("UUCCUACAUGAGGAUCACCCAUGUCAGGAUAUCUCCUCACCGCGAAUGGGCAGUGAAUAGAGAAGGGACAGGAA", 11.9),
    ("UUUAUUUUGCAAGGAUAUGUUUAAUUUUAGUUUCCUUAAACAUGAGGAUCACCCAUGUUAUACUUACAGAAGGUGCAUAAUUUU", 90.6),
    ("AAAAGGUCAGGAUAUGCGAGCGGCAGGGAGGCAGGUCGGUGGCAGAAGGGACAUGAGGAUCACCCAUGUUAAAA", 35),
    ("CUCUUGUCAGGAUAUUAUGGACGAAGGCAGGGCCGCGUCAGUGAGAAGGGACAUGAGGAUCACCCAUGUAAAAU", 97.8),
]
